# Tested on: Trichoderma virens ATCC 9645
# Assay Notes: growth yield (OD600) relative to untreated control; higher = less growth inhibition
# Assay Context: compound concentration: 100 uM; 40 h
Counter-ions that a name gives are not always drawn. Among all 1,300 compounds or so, about 75 (6%) showed an effect of 50% or more. Many of the other results were omitted from the sample, so strong results are more common in it than they were.

| Molecule | growth yield |
| --- | --- |
| N[C@@H](Cc1cc(I)c(Oc2ccc(O)c(I)c2)c(I)c1)C(=O)O [Liothyronine] | 91.3% |
| CO/N=C(\C(=O)N[C@@H]1C(=O)N2C(C(=O)OC(C)OC(C)=O)=C(COC(N)=O)CS[C@H]12)c1ccco1 (some centres undefined) [Cefuroxime axetil] | 97.1% |
| CCN[C@H]1C[C@H](C)S(=O)(=O)c2sc(S(N)(=O)=O)cc21 [Dorzolamide hydrochloride] | 99.3% |
| Cc1ccc(O)c([C@H](CCN(C(C)C)C(C)C)c2ccccc2)c1 [Tolterodine tartrate] | 96.7% |

* * *

# Tested on: Trichoderma virens ATCC 9645
# Assay Notes: growth yield (OD600) relative to untreated control; higher = less growth inhibition
# Assay Context: compound concentration: 100 uM; 40 h
Structures can show the parent of a compound that is named as a salt. Screen size: about 1,300 compounds; about 75 (6%) showed an effect of 50% or more. Shown is part of a subset that was picked to be rich in strong results.
Let's look at some molecules and their measured growth yield.
Measured Parameter: growth yield (%)

| Molecule | Recorded Result |
| --- | --- |
| N=C(N)N/N=C/c1c(Cl)cccc1Cl [Guanabenz acetate] | 91.5 |
| CCCCN(CCCC)CCC(O)c1cc2c(Cl)cc(Cl)cc2c2cc(C(F)(F)F)ccc12 (stereo unspecified) [Halofantrine hydrochloride] | 25.6 |
| CN(C)[C@@H]1C(O)=C(C(N)=O)C(=O)[C@@]2(O)C(O)=C3C(=O)c4c(O)ccc(Cl)c4[C@@H](O)[C@H]3C[C@@H]12 [Demeclocycline hydrochloride] | 82.6 |
| CCCN(CCC)CCc1cccc2c1CC(=O)N2 [Ropinirole hydrochloride] | 99.4 |
| CC(C(=O)O)c1cccc(Oc2ccccc2)c1 (stereo unspecified) [Fenoprofen calcium salt dihydrate] | 97.5 |
| CCN(CC)C(=S)SSC(=S)N(CC)CC | 27.2 |

* * *

Let's look at some molecules and their measured growth yield.
# Test system: Trichoderma virens ATCC 9645
# Assay Notes: growth yield (OD600) relative to untreated control; higher = less growth inhibition
# Assay Context: compound concentration: 100 uM; 40 h
Counter-ions that a name gives are not always drawn. In all, about 1,300 compounds went through this assay and about 75 (6%) showed an effect of 50% or more. The list comes from a sample in which strong results are over-represented; it also holds close analogues and randomly drawn compounds.

| Molecule | growth yield, % |
| --- | --- |
| CC(COc1ccccc1)N(CCCl)Cc1ccccc1 (stereo unspecified) [Phenoxybenzamine hydrochloride] | 104 |
| CCC1NC(=O)c2cc(S(N)(=O)=O)c(Cl)cc2N1 (stereo unspecified) [Quinethazone] | 114 |
| CC[N+](C)(CC)CCOC(=O)C1c2ccccc2Oc2ccccc21 [Methantheline bromide] | 110 |
| C[C@@H]1C[C@H]2[C@@H]3C[C@H](F)C4=CC(=O)C=C[C@]4(C)[C@@]3(Cl)[C@@H](O)C[C@]2(C)[C@H]1C(=O)COC(=O)C(C)(C)C [Clocortolone pivalate] | 107 |
| O=C(O)[C@H]1/C(=C/CO)O[C@@H]2CC(=O)N21 [Clavulanate potassium salt] | 95.5 |
| NC(=O)c1cc[n+](CC2=C(C(=O)[O-])N3C(=O)[C@@H](NC(=O)[C@@H](c4ccccc4)S(=O)(=O)O)[C@H]3SC2)cc1 [Cefsulodin sodium salt] | 95 |
| NCCNCCNCCNCCN [Tetraethylenepentamine pentahydrochloride] | 103 |
| Nc1nc(NC2CC2)c2ncn([C@H]3C=C[C@@H](CO)C3)c2n1 [Abacavir Sulfate] | 97.2 |
| CN(C/C=C/c1ccccc1)Cc1cccc2ccccc12 [Naftifine hydrochloride] | 15.6 |
| Cc1onc(-c2ccccc2)c1-c1ccc(S(N)(=O)=O)cc1 [Valdecoxib] | 107 |
| O=c1[nH]c(=O)n([C@H]2C[C@H](O)[C@@H](CO)O2)cc1F [Floxuridine] | 11.1 |
| CN(Cc1ccc(C(C)(C)C)cc1)Cc1cccc2ccccc12 [Butenafine Hydrochloride] | 2.06 |
| CC(COc1ccccc1)NC(C)C(O)c1ccc(O)cc1 (stereo unspecified) [Isoxsuprine hydrochloride] | 101 |
| N=C(N)NC(=N)NCCc1ccccc1 [Phenformin hydrochloride] | 96.9 |
| CC1=C(CC(=O)O)c2cc(F)ccc2/C1=C\c1ccc([S+](C)[O-])cc1 (stereo unspecified) [Sulindac] | 90.1 |
| O=c1[nH]c(=O)n([C@H]2C[C@H](O)[C@@H](CO)O2)cc1I [Idoxuridine] | 102 |
| CC(C)NC(=N)NC(=N)Nc1ccc(Cl)cc1 [Proguanil hydrochloride] | 110 |
| CCCCC(CC)CN1CN(CC(CC)CCCC)CC(C)(N)C1 (stereo unspecified) [Hexetidine] | 105 |
| Cc1cc(CC(=O)O)n(C)c1C(=O)c1ccc(Cl)cc1 [Zomepirac sodium salt] | 93.7 |
| COc1cccc(N(C)C(=S)Oc2ccc3c(c2)CCCC3)n1 [Liranaftate] | 0 |
| CCCCOc1ccc(OCCCN2CCOCC2)cc1 [Pramoxine hydrochloride] | 89.6 |

From: the supplement of paper PMC8007513
